- Tested system: Protein arginine N-methyltransferase 1 (Homo sapiens, UniProt Q99873)
- Sequence (Q99873 whole entry): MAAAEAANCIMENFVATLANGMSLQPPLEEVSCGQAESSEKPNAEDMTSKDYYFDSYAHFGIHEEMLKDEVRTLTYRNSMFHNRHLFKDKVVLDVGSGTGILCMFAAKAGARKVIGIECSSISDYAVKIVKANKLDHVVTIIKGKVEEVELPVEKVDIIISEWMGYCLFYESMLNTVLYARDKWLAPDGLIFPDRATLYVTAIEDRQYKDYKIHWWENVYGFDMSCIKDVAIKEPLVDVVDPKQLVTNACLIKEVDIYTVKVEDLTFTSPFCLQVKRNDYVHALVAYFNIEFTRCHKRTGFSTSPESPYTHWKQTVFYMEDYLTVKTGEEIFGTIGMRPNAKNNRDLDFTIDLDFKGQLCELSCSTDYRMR
Test readout: pIC50
Here pIC50 is given on a logarithmic scale as minus log10 of the concentration in mol/L.

Output measured pIC50 for this item: CNCCN1CCC(C)CC1
4.32
